Molecular target: 5-HT1 receptor
Assay: Affinity for the 5-HT1 receptor (receptor binding, 3H-serotonin radioligand, calf hippocampus membranes)
Conditions: calf hippocampus membrane preparations; 3H-Serotonin as radioligand
pKi: −log10 of the molar value. Counter-ions that a name gives are not always drawn.

{"compound": "CCCN(CCNS(=O)(=O)c1ccc(C)cc1)C1Cc2c[nH]c3ccc(OC)c(c23)C1 (stereo not shown) [Example 8, hydrochloride]", "pKi": 9.00}
{"compound": "CCCN(CCNS(=O)(=O)c1ccc2ccccc2c1)C1Cc2c[nH]c3ccc(OC)c(c23)C1 (stereo not shown) [Example 9, hydrochloride]", "pKi": 8.70}
{"compound": "COc1ccc2[nH]cc3c2c1CC(NCCCNS(=O)(=O)c1ccc(F)cc1)C3 (stereo not shown) [Example 18, hydrochloride]", "pKi": 9.15}
{"compound": "CCCN(CCS(=O)(=O)N(C)C)C1Cc2c[nH]c3ccc(OC)c(c23)C1 (stereo not shown)", "pKi": 8.10}

* * *

Biological target: 5-HT1 receptor
Assay: Affinity for the 5-HT1 receptor (receptor binding, 3H-serotonin radioligand, calf hippocampus membranes)
Details: calf hippocampus membrane preparations; 3H-Serotonin as radioligand
Where a name gives a salt, the structure may show the parent alone.

{"compound": "CCCN(CCNC(=O)OCC)C1Cc2c[nH]c3ccc(OC)c(c23)C1 (stereo not shown) [Example 5]", "Ki, nM": 1}
{"compound": "COc1ccc2[nH]cc3c2c1CC(NCCCCN1C(=O)c2ccccc2S1(=O)=O)C3 (stereo not shown) [Example 1, hydrochloride]", "Ki, nM": 2}
{"compound": "O=C1c2ccccc2S(=O)(=O)N1CCCCNC1Cc2cccc3[nH]cc(c23)C1 (stereo not shown) [Example 2]", "Ki, nM": 2}
{"compound": "CCCN(CCNS(C)(=O)=O)C1Cc2c[nH]c3ccc(OC)c(c23)C1 (stereo not shown) [Example 6]", "Ki, nM": 6}
